gcPBM binding intensity (ln) values by entry
System: PF3D7_0420300 AP2 domain 1 (GST-tagged)
Test: gcPBM binding intensity (ln(normalized median fluorescence intensity)); higher = stronger DNA binding
The full ranking holds about 25,000 sequences; the median of “ln(normalized median fluorescence intensity)” is about 9.3, and the highest 2% start at about 10. Only a selection was taken, and the highest values are over-represented in it overall.
quantity: gcPBM binding intensity (ln)

[[record]]
sequence_input = "CATATACATACACATACACACATACACCCATACACA [CACACA_site8514]"
test_system = "PF3D7_0420300 AP2 domain 1 (GST-tagged)"
quantity = "gcPBM binding intensity (ln)"
number = 9.77

[[record]]
sequence_input = "TTTCTTATTTTTTTCACACACTAAACATTTCAAATG [CACACA_site5259]"
test_system = "PF3D7_0420300 AP2 domain 1 (GST-tagged)"
quantity = "gcPBM binding intensity (ln)"
number = 9.35

[[record]]
sequence_input = "AGTATAAAAATAAGCACACACACAAATATATATTTA [CACACA_site923]"
test_system = "PF3D7_0420300 AP2 domain 1 (GST-tagged)"
quantity = "gcPBM binding intensity (ln)"
number = 10.2

[[record]]
sequence_input = "TCTTTTTAGATATATACACACCGTGTCTACCTATAC [CACACA_site7551]"
test_system = "PF3D7_0420300 AP2 domain 1 (GST-tagged)"
quantity = "gcPBM binding intensity (ln)"
number = 9.41

[[record]]
sequence_input = "AATACAGACAGACACACACACAAAATAAAATACAAA [CACACA_site245]"
test_system = "PF3D7_0420300 AP2 domain 1 (GST-tagged)"
quantity = "gcPBM binding intensity (ln)"
number = 10.1

[[record]]
sequence_input = "ACTATTTTCTTCAAAACATGCACCACATAAACATAA [TGCATGCA_site200]"
test_system = "PF3D7_0420300 AP2 domain 1 (GST-tagged)"
quantity = "gcPBM binding intensity (ln)"
number = 9.18

[[record]]
sequence_input = "ACCTATTTCAAACACACACACACACCCACAAACATA [CACACA_site977]"
test_system = "PF3D7_0420300 AP2 domain 1 (GST-tagged)"
quantity = "gcPBM binding intensity (ln)"
number = 10.4

[[record]]
sequence_input = "ACTTATATAAAACATTAACACACAAAGAAAAAAAAT [CACACA_site8529]"
test_system = "PF3D7_0420300 AP2 domain 1 (GST-tagged)"
quantity = "gcPBM binding intensity (ln)"
number = 9.96

[[record]]
sequence_input = "TACAAACAGACATATACACACAAAAAAAAAATAAAA [CACACA_site2562]"
test_system = "PF3D7_0420300 AP2 domain 1 (GST-tagged)"
quantity = "gcPBM binding intensity (ln)"
number = 9.91

[[record]]
sequence_input = "CATACACCCCAACACACACACACACCCATATATAAT [CACACA_site8097]"
test_system = "PF3D7_0420300 AP2 domain 1 (GST-tagged)"
quantity = "gcPBM binding intensity (ln)"
number = 10.4

[[record]]
sequence_input = "TAAAAAAAAAAAAAAACACACATATAAATATTTATA [CACACA_site6702]"
test_system = "PF3D7_0420300 AP2 domain 1 (GST-tagged)"
quantity = "gcPBM binding intensity (ln)"
number = 9.45

[[record]]
sequence_input = "AACAAATACAGACACACACACACACTAATAAAAAAA [CACACA_site8067]"
test_system = "PF3D7_0420300 AP2 domain 1 (GST-tagged)"
quantity = "gcPBM binding intensity (ln)"
number = 10.3

[[record]]
sequence_input = "AATCTAATATAATGCACACATAAAAAAAAATCAAAC [CACACA_site3633]"
test_system = "PF3D7_0420300 AP2 domain 1 (GST-tagged)"
quantity = "gcPBM binding intensity (ln)"
number = 9.8

[[record]]
sequence_input = "TTTATATTATTTTAAACATGCACAAGTATAATTTAT [TGCATGCA_site233]"
test_system = "PF3D7_0420300 AP2 domain 1 (GST-tagged)"
quantity = "gcPBM binding intensity (ln)"
number = 8.97

[[record]]
sequence_input = "ACCTATTTCAAACACACACACACACTAGCAAACATA [CACACA_site4695]"
test_system = "PF3D7_0420300 AP2 domain 1 (GST-tagged)"
quantity = "gcPBM binding intensity (ln)"
number = 10.3

[[record]]
sequence_input = "CTATTTCAGAAACACACACACACAAACAAACATATA [CACACA_site978]"
test_system = "PF3D7_0420300 AP2 domain 1 (GST-tagged)"
quantity = "gcPBM binding intensity (ln)"
number = 9.93

[[record]]
sequence_input = "ATCAACAAAACATACACACACATATAGATTTATATA [CACACA_site7415]"
test_system = "PF3D7_0420300 AP2 domain 1 (GST-tagged)"
quantity = "gcPBM binding intensity (ln)"
number = 10

[[record]]
sequence_input = "AATGTGTATATATATACACACACATATATATATTTT [CACACA_site8596]"
test_system = "PF3D7_0420300 AP2 domain 1 (GST-tagged)"
quantity = "gcPBM binding intensity (ln)"
number = 9.75

[[record]]
sequence_input = "TGAACACAGACAAATACACACAAAAAAAATAAATAA [CACACA_site4298]"
test_system = "PF3D7_0420300 AP2 domain 1 (GST-tagged)"
quantity = "gcPBM binding intensity (ln)"
number = 9.79

[[record]]
sequence_input = "GCCATTGTACCATCCACACACATATAAATATGTATA [CACACA_site7303]"
test_system = "PF3D7_0420300 AP2 domain 1 (GST-tagged)"
quantity = "gcPBM binding intensity (ln)"
number = 9.85

